B1: GOLPH3 (parent)
chain: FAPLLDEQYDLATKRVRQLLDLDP

Variants of: B1
test: protein stability index of a GFP-peptide fusion (GPS, HEK-293T) (PSI 1-6); higher = more stable;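 further: lentivirally expressed fusions sorted by FACS into six bins by GFP to DsRed ratio, PSI derived from sequencing read proportions per bin multiplied by bin number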
condition details: c terminus: a fixed tail appended
value kind: protein stability index

What value of protein stability index has been recorded for this entry: P24C
2.36

What value of protein stability index has been recorded for this entry: A12N
2.47

What value of protein stability index has been recorded for this entry: Y9N
2.57

What value of protein stability index has been recorded for this entry: Q8R
1.39

What value of protein stability index has been recorded for this entry: P24A
1.81

What value of protein stability index has been recorded for this entry: E7N
1.91

What value of protein stability index has been recorded for this entry: A2D
3.71

What value of protein stability index has been recorded for this entry: P24Q
2.33

What value of protein stability index has been recorded for this entry: R17T
2.11

What value of protein stability index has been recorded for this entry: A2M
2.03
